Numbers sourced from patent US9458198B1.

- System: NPR-B (Homo sapiens)
- Construct: a functional assay using endogenously NPR-B expressing GTM-3 cells; endogenous in cells; host or cells: GTM-3 (transformed human trabecular meshwork cells)
- Sequence (P20594 23-1047): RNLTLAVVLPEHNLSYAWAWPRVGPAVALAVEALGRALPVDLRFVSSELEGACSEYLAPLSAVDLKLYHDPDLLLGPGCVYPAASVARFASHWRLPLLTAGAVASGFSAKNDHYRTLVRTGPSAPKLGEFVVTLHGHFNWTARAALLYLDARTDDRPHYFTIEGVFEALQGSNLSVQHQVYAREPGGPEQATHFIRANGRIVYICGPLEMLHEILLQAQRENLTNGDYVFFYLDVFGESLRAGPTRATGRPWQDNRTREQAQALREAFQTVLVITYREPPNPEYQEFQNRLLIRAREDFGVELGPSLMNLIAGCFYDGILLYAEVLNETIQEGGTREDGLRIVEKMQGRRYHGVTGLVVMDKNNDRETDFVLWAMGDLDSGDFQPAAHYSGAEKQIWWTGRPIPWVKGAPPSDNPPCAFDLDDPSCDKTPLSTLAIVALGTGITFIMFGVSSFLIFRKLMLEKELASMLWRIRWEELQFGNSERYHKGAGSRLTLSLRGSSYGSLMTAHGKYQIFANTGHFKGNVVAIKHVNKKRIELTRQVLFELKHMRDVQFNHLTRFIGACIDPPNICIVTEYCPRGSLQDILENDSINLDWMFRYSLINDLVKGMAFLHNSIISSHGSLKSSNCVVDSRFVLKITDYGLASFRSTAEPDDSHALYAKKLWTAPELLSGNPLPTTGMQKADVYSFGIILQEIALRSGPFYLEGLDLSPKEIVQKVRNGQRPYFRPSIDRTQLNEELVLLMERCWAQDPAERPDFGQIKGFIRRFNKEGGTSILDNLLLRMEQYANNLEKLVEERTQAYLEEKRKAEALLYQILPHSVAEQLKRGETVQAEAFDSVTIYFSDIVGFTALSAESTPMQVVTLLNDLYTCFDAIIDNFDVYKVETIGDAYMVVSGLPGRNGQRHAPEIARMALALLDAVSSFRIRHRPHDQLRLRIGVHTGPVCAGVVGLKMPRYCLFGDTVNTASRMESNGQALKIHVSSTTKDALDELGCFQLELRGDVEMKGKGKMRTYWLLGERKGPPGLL
- Method Notes: NPR-B induced production of cyclic GMP in GTM-3 cells
- Assay type: cell-based
- Condition: GTM-3 cells; group needs both EC50 and Emax criteria, checked A then B then C; read-out: Activity (group): NPR-B activation, EC50 and Emax (CNP = 100%)
pEC50: −log10 of the molar value. Where a SMILES comes first, the peptide text is derived from it. Bridges are numbered along the chain shown (N, C = ends). [ ]: non-standard residue; d: D form. The star is where a group is joined. Hexanoyl = CCCCCC(=O)*
Readout: pEC50

Compound | System | pEC50
CCCCS(=O)(=O)N[C@H]1CSSC[C@@H](C(N)=O)NC(=O)[C@H](CO)NC(=O)[C@H]([C@@H](C)CC)NC(=O)[C@H](CCCNC(=N)N)NC(=O)[C@H](CC(=O)O)NC(=O)[C@H](CC(C)C)NC(=O)[C@H](CCCCN)NC(=O)[C@H](CC(C)C)NC(=O)CNC(=O)[C@H](Cc2ccccc2)NC(=O)[C@@H](C)NC1=O [compound 71] | NPR-B (Homo sapiens) | > 5.30

Query: // lookup pEC50 | system=NPR-B (Homo sapiens) | key= CCCCCC(=O)N[C@H]1CSSC[C@@H](C(N)=O)NC(=O)[C@H](CO)NC(=O)[C@H]([C@@H](C)CC)NC(=O)[C@H](CCCNC(=N)N)NC(=O)[C@H](CC(=O)O)NC(=O)[C@H](CC(C)C)NC(=O)[C@H](CCCCN)NC(=O)[C@H](C)NC(=O)CNC(=O)[C@H](Cc2ccccc2)NC(=O)[C@@H](C)NC1=O [compound 101] (Hexanoyl-C[dA]FGAKLDRISC-NH2; disulfide 1-12)
Response: > 5.30

====

Kindly supply the reported EC50 values for the records listed here.
- System: NPR-B (Homo sapiens)
- Construct: a functional assay using endogenously NPR-B expressing GTM-3 cells; endogenous in cells; host or cells: GTM-3 (transformed human trabecular meshwork cells)
- Method Notes: NPR-B induced production of cyclic GMP in GTM-3 cells
- Format: cell-based
- Condition: GTM-3 cells; group needs both EC50 and Emax criteria, checked A then B then C; read-out: Activity (group): NPR-B activation, EC50 and Emax (CNP = 100%)
Where a SMILES comes first, the peptide text is derived from it. Bridges are numbered along the chain shown (N, C = ends). [ ]: non-standard residue; d: D form. The star is where a group is joined. Hexanoyl = CCCCCC(=O)*

Compound | System | EC50
CC[C@H](C)[C@@H]1NC(=O)[C@H](CCCNC(=N)N)NC(=O)[C@H](CC(=O)O)NC(=O)[C@H](CC(C)C)NC(=O)[C@H](CCCCN)NC(=O)[C@H](CC(C)C)NC(=O)CNC(=O)[C@H](Cc2ccccc2)NC(=O)[C@H](Cc2c[nH]cn2)NC(=O)[C@H](NC(=O)[C@@H](N)CCSC)CSSC[C@@H](C(N)=O)NC(=O)[C@H](CO)NC1=O [compound 11] | NPR-B (Homo sapiens) | < 15 µM
CC[C@H](C)[C@@H]1NC(=O)[C@H](CCCNC(=N)N)NC(=O)[C@H](CC(=O)O)NC(=O)[C@H](CC(C)C)NC(=O)[C@H](CCCCN)NC(=O)[C@H](CC(C)C)NC(=O)CNC(=O)[C@H](Cc2ccccc2)NC(=O)[C@H](Cc2c[nH]cn2)NC(=O)[C@@H](NC(=O)[C@@H](N)CCSC)CSSC[C@@H](C(=O)O)NC(=O)[C@H](CO)NC1=O [compound 15] | NPR-B (Homo sapiens) | < 15 µM
CC[C@H](C)[C@@H]1NC(=O)[C@H](CCCNC(=N)N)NC(=O)[C@H](CC(=O)O)NC(=O)[C@H](CC(C)C)NC(=O)[C@H](CCCCN)NC(=O)[C@H](CC(C)C)NC(=O)CNC(=O)[C@H](Cc2ccccc2)NC(=O)[C@H]2CCCN2C(=O)[C@@H](NC(=O)[C@@H](N)CCSC)CSSC[C@@H](C(N)=O)NC(=O)[C@H](CO)NC1=O [compound 37] | NPR-B (Homo sapiens) | < 5 µM
CCCCCC(=O)N[C@H]1CSSC[C@@H](C(N)=O)NC(=O)[C@H](CO)NC(=O)[C@H]([C@@H](C)CC)NC(=O)[C@H](CCNC(=N)N)NC(=O)[C@H](CC(=O)O)NC(=O)[C@H](CC(C)C)NC(=O)[C@H](CCCCN)NC(=O)[C@H](CC(C)C)NC(=O)CNC(=O)[C@H](Cc2ccccc2)NC(=O)[C@@H](C)NC1=O [compound 114] | NPR-B (Homo sapiens) | < 15 µM
CC[C@H](C)[C@@H]1NC(=O)[C@H](CCCNC(=N)N)NC(=O)[C@H](CC(=O)O)NC(=O)[C@H](CC(C)C)NC(=O)[C@H](CCCCN)NC(=O)[C@H](CC(C)C)NC(=O)CNC(=O)[C@H](Cc2ccccc2)NC(=O)CCCNC(=O)[C@@H](NC(=O)[C@@H](N)CCSC)CSSC[C@@H](C(N)=O)NC(=O)[C@H](CO)NC1=O [compound 32] | NPR-B (Homo sapiens) | < 15 µM
CC[C@H](C)[C@@H]1NC(=O)[C@H](CCCNC(=N)N)NC(=O)[C@H](CC(=O)O)NC(=O)[C@H](CC(C)C)NC(=O)[C@H](CCCCN)NC(=O)[C@H](CC(C)C)NC(=O)CNC(=O)[C@H](Cc2ccccc2)NC(=O)[C@H](Cc2c[nH]cn2)NC(=O)[C@@H](NC(=O)[C@@H](N)CCSC)CSSC[C@@H](C(=O)N[C@@H](Cc2ccc(O)cc2)C(=O)N[C@@H](CO)C(N)=O)NC(=O)[C@H](CO)NC1=O [compound 26] (H-MCHFGLKLDRISCYS-NH2; disulfide 2-13) | NPR-B (Homo sapiens) | < 15 µM
CC[C@H](C)[C@@H]1NC(=O)[C@H](CCCNC(=N)N)NC(=O)[C@H](CC(=O)O)NC(=O)[C@H](CC(C)C)NC(=O)[C@H](CCCCN)NC(=O)[C@H](CC(=O)O)NC(=O)CNC(=O)[C@H](Cc2ccccc2)NC(=O)[C@H](Cc2c[nH]cn2)NC(=O)[C@@H](NC(=O)[C@@H](N)CCSC)CSSC[C@@H](C(N)=O)NC(=O)[C@H](CO)NC1=O [compound 19] (H-MCHFGDKLDRISC-NH2; disulfide 2-13) | NPR-B (Homo sapiens) | < 5 µM

Pending compound:
Query: Report EC50 for CCCCCC(=O)N[C@H]1CSSC[C@@H](C(N)=O)NC(=O)[C@H](CO)NC(=O)[C@H]([C@@H](C)CC)NC(=O)[C@H](CCCNC(=N)N)NC(=O)[C@H](CC(=O)O)NC(=O)[C@H](CC(C)C)NC(=O)[C@H](CCCCN)NC(=O)CNC(=O)CNC(=O)[C@H](Cc2ccccc2)NC(=O)[C@@H](C)NC1=O [compound 102] (Hexanoyl-C[dA]FGGKLDRISC-NH2; disulfide 1-12) please.
Response: < 5 µM
